Target: human CYP2A6 (Homo sapiens (Human))
Sequence (P11509 whole entry): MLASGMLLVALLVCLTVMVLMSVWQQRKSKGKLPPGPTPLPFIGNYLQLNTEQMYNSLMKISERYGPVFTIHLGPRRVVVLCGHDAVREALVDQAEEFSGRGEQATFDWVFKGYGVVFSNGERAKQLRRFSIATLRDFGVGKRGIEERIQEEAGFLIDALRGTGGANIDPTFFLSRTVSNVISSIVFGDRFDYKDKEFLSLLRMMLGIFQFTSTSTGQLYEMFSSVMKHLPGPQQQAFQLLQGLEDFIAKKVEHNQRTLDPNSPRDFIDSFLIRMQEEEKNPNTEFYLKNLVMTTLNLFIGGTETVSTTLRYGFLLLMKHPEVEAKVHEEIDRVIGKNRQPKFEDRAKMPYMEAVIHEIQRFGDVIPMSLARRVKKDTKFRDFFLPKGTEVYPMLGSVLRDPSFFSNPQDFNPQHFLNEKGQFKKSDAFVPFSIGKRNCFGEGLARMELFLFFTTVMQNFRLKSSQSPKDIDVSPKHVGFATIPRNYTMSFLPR
Assay: CYP2A6 mediated coumarin 7-hydroxylation inhibition
Conditions: read-out: IC50 ± SD 2A6; insect cell microsomes expressing CYP2A6, 0.1M Tris buffer; mean of at least 3 determinations ± SD
Exercise: state measured pIC50 for each of the molecules provided.
One number for each entry, as −log10 of the molar value.

• Nc1ccc(-c2cccnc2)s1 = 5.46

Lab note: each molecule below needs its pIC50 filled in.
1. ON=Cc1ccc(-c2cccnc2)o1 [Compound 37b]
2. c1ccc(Cn2cnc(-c3cccnc3)c2)cc1

Response:
5.38
5.85

Please give pIC50, item by item, for the list that follows.
1. ON=Cc1ccc(-c2cccnc2)o1 [Compound 37a]
2. c1cncc(-c2ccc(CNCc3ccc(-c4cccnc4)s3)s2)c1 [Compound 38b]

Response:
1: 4.08; 2: 5.13

###

Target: UniProt:Q16696
Assay: in vitro
Kindly state inhibition at 1 µM for each of the entries shown.
One number for each entry, in %.

Guide cases for inhibition at 1 µM, answers given:
* O/N=C/c1ccc(-c2cccnc2)o1 [TD-II-065 ESP trans isomer] | 41
* c1cncc(-c2ccsc2)c1 | 12
* CNCC#Cc1cccnc1 | 2

Lab note: next compound to report on.
Query: // returns reported inhibition at 1 µM for input NCc1ccc(-c2cccnc2)o1
Response: 29

###

Target: CYP3A4 relative to CYP2A6 (Homo sapiens (Human), UniProt P08684)
Sequence (P08684 whole entry): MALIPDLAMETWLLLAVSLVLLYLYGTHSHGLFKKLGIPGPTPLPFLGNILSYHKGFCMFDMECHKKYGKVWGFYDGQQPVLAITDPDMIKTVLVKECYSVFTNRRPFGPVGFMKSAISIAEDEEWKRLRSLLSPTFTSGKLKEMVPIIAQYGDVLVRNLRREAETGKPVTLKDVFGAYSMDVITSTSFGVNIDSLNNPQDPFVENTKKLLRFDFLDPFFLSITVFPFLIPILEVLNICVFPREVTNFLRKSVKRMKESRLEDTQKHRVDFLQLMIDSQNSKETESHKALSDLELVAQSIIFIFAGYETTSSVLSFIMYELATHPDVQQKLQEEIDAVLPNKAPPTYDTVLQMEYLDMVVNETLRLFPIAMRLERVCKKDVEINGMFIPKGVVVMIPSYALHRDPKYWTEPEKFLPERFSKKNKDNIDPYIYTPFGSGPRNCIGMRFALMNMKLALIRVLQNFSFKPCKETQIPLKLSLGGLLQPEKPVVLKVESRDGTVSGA
Experiment: in vitro
Settings: human, pH 7.5, Selectivity ratio (IC50 CYPX/IC50 CYP2A6) 3A4/2A6
reported_property: selectivity ratio
One number for each entry.

Query: Would you mind telling me what selectivity ratio value was observed for Nc1ccc(-c2cccnc2)s1 ?
Response: 2

###

Molecular target: UniProt P05181
Sequence (P05181 whole entry): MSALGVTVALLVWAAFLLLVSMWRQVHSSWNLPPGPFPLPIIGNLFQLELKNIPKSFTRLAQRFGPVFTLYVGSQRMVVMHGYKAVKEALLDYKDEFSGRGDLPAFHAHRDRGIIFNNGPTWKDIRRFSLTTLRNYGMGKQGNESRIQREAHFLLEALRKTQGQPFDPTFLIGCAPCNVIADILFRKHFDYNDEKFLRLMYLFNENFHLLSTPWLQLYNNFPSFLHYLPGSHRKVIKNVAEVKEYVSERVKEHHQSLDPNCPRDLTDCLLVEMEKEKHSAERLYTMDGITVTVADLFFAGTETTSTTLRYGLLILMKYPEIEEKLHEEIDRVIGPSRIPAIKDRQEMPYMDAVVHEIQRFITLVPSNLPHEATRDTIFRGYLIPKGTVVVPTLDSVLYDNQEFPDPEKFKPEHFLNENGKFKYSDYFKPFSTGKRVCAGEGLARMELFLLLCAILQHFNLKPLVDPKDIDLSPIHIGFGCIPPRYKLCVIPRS
Test: CYP2E1 Vivid blue substrate O-dealkylation inhibition
Format: biochemical
Settings: read-out: IC50 ± SD 2E1; insect cell microsomes expressing CYP2E1, 0.2M potassium phosphate buffer; mean of at least 3 determinations ± SD
reported_property: IC50 (µM)
Answers are plain numbers, in µM.

Query: For the molecule NCC1CCC(c2cccnc2)O1 (racemic) , what IC50 is on record?
Response: 77.5

###

Target: CYP2C19 (Homo sapiens (Human), UniProt P33261)
Sequence (P33261 whole entry): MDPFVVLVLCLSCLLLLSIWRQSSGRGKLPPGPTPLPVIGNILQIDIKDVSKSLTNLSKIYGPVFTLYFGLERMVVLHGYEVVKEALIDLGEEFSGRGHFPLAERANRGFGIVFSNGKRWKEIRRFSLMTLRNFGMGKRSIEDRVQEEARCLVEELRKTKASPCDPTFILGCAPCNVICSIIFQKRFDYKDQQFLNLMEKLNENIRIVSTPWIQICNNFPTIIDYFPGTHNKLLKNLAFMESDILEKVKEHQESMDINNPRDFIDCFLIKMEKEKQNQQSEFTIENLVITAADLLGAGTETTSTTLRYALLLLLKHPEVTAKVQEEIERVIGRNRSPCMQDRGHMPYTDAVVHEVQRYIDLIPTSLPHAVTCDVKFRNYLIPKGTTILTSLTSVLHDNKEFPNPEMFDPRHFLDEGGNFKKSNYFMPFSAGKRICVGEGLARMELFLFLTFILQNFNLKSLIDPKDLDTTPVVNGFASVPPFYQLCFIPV
Assay: CYP2C19 Vivid blue substrate O-dealkylation inhibition
Format: biochemical
Conditions: read-out: IC50 ± SD 2C19; insect cell microsomes expressing CYP2C19, 0.2M potassium phosphate buffer; mean of at least 3 determinations ± SD
reported_property: IC50 (µM)
Give bare numbers, in µM.

Query: Look up IC50: NCC1CCC(c2cccnc2)O1 (racemic)
Response: 233

###

Target: CYP2B6 (Homo sapiens (Human), UniProt P20813)
Sequence (P20813 whole entry): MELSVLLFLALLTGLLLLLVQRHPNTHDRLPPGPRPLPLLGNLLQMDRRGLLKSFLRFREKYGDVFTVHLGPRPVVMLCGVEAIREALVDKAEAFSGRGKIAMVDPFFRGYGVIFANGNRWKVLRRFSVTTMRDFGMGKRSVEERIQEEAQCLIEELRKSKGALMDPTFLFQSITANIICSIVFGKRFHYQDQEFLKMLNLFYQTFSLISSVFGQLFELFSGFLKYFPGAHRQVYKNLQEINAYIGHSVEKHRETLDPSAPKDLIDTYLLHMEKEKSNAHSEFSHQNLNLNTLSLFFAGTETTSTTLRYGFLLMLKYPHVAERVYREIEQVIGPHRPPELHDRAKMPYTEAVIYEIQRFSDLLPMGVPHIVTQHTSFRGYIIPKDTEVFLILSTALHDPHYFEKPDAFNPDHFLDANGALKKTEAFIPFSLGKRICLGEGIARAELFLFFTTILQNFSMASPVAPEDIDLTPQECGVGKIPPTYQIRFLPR
Assay: CYP2B6 Vivid blue substrate O-dealkylation inhibition
Format: biochemical
Details: insect cell microsomes expressing CYP2B6, 0.2M potassium phosphate buffer; mean of at least 3 determinations ± SD; read-out: IC50 ± SD 2B6
Entry class follows IC50: low range (below 7 µM), mid range (7 µM to below 100 µM), high range (100 µM or more)

• c1ccc(Cn2cnc(-c3cccnc3)c2)cc1 [Compound 60, 3-(1-benzyl-1H-imidazol-4-yl)pyridine] = low range
• ON=Cc1ccc(-c2cccnc2)o1 [Compound 37a] = high range
• NCc1ccc(-c2cccnc2)o1 [Compound 39a, (5-(Pyridin-3-yl)furan-2-yl)methanamine] = high range
• Cc1cscc1-c1ccc(F)nc1 [Compound 21] = mid range
• c1cncc(-c2ccc(CNCc3ccc(-c4cccnc4)s3)s2)c1 [Compound 38b] = mid range

Query: Classify this molecule: ON=Cc1ccc(-c2cccnc2)o1 [Compound 37b]
Response: high range

Query: Categorize the following entry: Cc1cscc1-c1cccnc1 [Compound 20, 3-(4-Methylthiophen-3-yl)pyridine]
Response: low range

###

Biological target: CYP2A13 (Homo sapiens (Human), UniProt Q16696)
Sequence (Q16696 whole entry): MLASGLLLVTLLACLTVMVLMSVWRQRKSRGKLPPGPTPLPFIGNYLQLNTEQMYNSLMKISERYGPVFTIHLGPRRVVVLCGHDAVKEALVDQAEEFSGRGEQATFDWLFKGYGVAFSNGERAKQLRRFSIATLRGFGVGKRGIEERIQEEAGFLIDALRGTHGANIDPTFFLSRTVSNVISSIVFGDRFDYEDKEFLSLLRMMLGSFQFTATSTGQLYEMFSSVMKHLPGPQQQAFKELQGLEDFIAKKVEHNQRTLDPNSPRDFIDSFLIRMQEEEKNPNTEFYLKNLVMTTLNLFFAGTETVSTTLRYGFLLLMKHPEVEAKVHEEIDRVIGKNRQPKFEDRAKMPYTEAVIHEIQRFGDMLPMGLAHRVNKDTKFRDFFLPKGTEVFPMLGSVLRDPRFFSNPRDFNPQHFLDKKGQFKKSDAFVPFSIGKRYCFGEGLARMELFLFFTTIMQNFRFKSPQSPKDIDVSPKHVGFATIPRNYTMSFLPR
Test: Inhibition of human CYP2A13
Conditions: human
reported_property: inhibition at 1 µM (%)
Answers are plain numbers, in %.

* Clc1cc(-c2cccnc2)c(Cl)s1 | 19
* NCc1cc(-c2cccnc2)no1 | 7
* Clc1sccc1-c1cccnc1 | 13

Below are 6 compounds. Give each one its inhibition at 1 µM.
1. Nc1ccc(-c2cccnc2)s1
2. CNCc1ccc(-c2cccnc2)s1
3. CC(=O)SCc1ccc(-c2cccnc2)o1
4. Clc1ccc(-c2cccnc2)s1
5. c1ccc(Cn2cnc(-c3cccnc3)c2)cc1
6. SCc1ccc(-c2cccnc2)o1

Response:
0
17
13
27
17
11

Please state inhibition at 1 µM for every compound in the list that follows.
1. Cc1ccsc1-c1cncc(-c2sccc2C)c1
2. Cc1ccsc1-c1cccnc1
3. CNCc1ccc(-c2cccnc2)o1
4. CSCc1ccc(-c2cccnc2)o1
5. c1cncc(-n2cncn2)c1

Response:
19
51
0
16
18

###

Biological target: CYP2C9 relative to CYP2A6 (Homo sapiens (Human), UniProt P11712)
Sequence (P11712 whole entry): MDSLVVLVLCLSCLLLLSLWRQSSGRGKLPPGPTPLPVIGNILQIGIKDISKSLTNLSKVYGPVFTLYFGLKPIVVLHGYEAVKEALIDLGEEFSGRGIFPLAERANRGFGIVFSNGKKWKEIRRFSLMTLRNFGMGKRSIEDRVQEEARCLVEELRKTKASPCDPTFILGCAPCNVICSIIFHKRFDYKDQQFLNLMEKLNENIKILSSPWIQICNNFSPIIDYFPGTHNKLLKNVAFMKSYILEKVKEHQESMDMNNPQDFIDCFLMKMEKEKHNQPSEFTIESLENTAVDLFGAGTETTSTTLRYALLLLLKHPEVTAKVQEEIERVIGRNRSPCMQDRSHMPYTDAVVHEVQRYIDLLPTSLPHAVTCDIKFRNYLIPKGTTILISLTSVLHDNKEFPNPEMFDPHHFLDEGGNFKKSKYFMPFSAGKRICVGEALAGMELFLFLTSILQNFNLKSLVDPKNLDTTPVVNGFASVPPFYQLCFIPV
Assay: CYP2C9 Vivid blue substrate O-dealkylation inhibition
Format: biochemical
Conditions: human, pH 8, Selectivity ratio (IC50 CYPX/IC50 CYP2A6) 2C9/2A6
reported_property: selectivity ratio
One number for each entry.

Query: For c1cncc(-c2ccc(CNCc3ccc(-c4cccnc4)s3)s2)c1 [Compound 38b] , what is its reported selectivity ratio?
Response: 0.1

###

Target: UniProt:P10635
Sequence (P10635 whole entry): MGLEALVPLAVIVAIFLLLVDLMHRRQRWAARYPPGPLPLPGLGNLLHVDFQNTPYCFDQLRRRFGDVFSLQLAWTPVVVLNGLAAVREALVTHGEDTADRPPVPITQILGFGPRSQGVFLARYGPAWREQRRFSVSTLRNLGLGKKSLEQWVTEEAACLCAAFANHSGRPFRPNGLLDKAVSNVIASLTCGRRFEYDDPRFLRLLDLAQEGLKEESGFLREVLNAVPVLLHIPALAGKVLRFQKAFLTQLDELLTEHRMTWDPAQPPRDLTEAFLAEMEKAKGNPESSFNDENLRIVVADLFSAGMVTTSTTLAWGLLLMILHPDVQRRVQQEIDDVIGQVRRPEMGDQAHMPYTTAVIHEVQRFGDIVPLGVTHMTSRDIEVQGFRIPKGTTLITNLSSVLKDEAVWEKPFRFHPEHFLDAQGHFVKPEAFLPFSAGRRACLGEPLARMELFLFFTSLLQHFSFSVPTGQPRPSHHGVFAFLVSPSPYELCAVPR
Test: CYP2D6 Vivid blue substrate O-dealkylation inhibition
Assay type: biochemical
Conditions: Table 4; unit inferred; read-out: 2D6 IC50 ± SD
reported_property: pIC50
Numbers only, as −log10 of the molar value.

* NCc1ccc(-c2cccnc2)o1 [Compound 2a] | 4.95
* CNCc1ccc(-c2cccnc2)o1 [Compound 2b] | 4.04
* CNCc1ccc(-c2cccnc2)s1 [Compound 1b] | 3.95
* CN(C)Cc1ccc(-c2cccnc2)o1 [Compound 2c] | 3.60
* CN(C)Cc1ccc(-c2cccnc2)s1 [Compound 1c] | 4.54

Now take the following compound into account.
Query: Name the reported pIC50 value associated with the compound NCc1ccc(-c2cccnc2)s1 [Compound 1a]
Response: 3.77

###

Record form. Attribute: IC50. Fill in for each entry.
Biological target: CYP2C19 (Homo sapiens (Human))
Experiment: CYP2C19 Vivid blue substrate O-dealkylation inhibition
Assay type: biochemical
Details: Table 4; unit inferred; read-out: 2C19 IC50 ± SD

Below: 2 compounds and their reported IC50.
- CN(C)Cc1ccc(-c2cccnc2)o1 [Compound 2c]: 157 µM
- CNCc1ccc(-c2cccnc2)o1 [Compound 2b]: 30.6 µM

Please state, for each entry, its recorded IC50.
1. CN(C)Cc1ccc(-c2cccnc2)s1 [Compound 1c]
2. CNCc1ccc(-c2cccnc2)s1 [Compound 1b]
3. NCc1ccc(-c2cccnc2)o1 [Compound 2a]

Response:
106 µM
59.8 µM
22 µM

###

Biological target: CYP2A13 (Homo sapiens (Human))
Can you tell me IC50 for the items I'm about to list?

- Cc1ccsc1-c1cccnc1: ~1 µM

Shifting focus to the compound that follows.
Query: I would be grateful if you could share the reported IC50 for Cc1ccsc1-c1ccc(F)nc1 .
Response: 1 to 5 µM

###

Target: human CYP2A6 (Homo sapiens (Human))
Assay: CYP2A6 mediated coumarin 7-hydroxylation inhibition
Conditions: coumarin 7-hydroxylation; unit inferred
reported_property: Ki

Query: Request the reported Ki associated with Nc1ccc(-c2cccnc2)s1
Response: 590 nM

###

Target: CYP3A4 (Homo sapiens (Human), UniProt P08684)
Sequence (P08684 whole entry): as the sequence (P08684 whole entry) above
Assay: in vitro
Settings: microsomes, pH 7.5
Exercise: for every item that follows, state its recorded pIC50.
One number for each entry, as −log10 of the molar value.

• c1ccc(Cn2cnc(-c3cccnc3)c2)cc1 = 4.12

# evaluate next
Query: Could you tell me which pIC50 is on file for c1cncc(-c2c[nH]cn2)c1 ?
Response: 3.85

###

Target: UniProt:P33261
Assay: CYP2C19 Vivid blue substrate O-dealkylation inhibition
Format: biochemical
Details: recombinant CYP2C19 BACULOSOMES, pH 8, probe Vivid blue substrate (10 μM), O-dealkylation; human CYP2C19 versus human CYP2A6; read-out: Selectivity ratio (IC50 CYPX/IC50 CYP2A6) 2C19/2A6
reported_property: selectivity ratio at 40 min

- Nc1ccc(-c2cccnc2)s1 [Compound 57, 5-(Pyridin-3-yl)thiophen-2-amine]: 0.9

Read the next record carefully.
Query: Using the record for c1ccc(Cn2cnc(-c3cccnc3)c2)cc1 [Compound 60, 3-(1-benzyl-1H-imidazol-4-yl)pyridine] , report its selectivity ratio at 40 min.
Response: 9

###

Exercise: for every item that follows, state its recorded pIC50.
Molecular target: CYP3A4 (Homo sapiens (Human))
Assay: in vitro
Details: human, pH 7.5
pIC50: −log10 of the molar value.

• O/N=C/c1ccc(-c2cccnc2)o1 [Compound 39] = < 3.40

Turning now to a further record.
Query: Report pIC50 for O/N=C\c1ccc(-c2cccnc2)o1 [Compound 72] please.
Response: < 3.40

###

Test: Human liver microsome stability assay
Settings: human, human liver microsomes, pH 7.4
Provide the reported half-life at 40 μM of each item.
Numbers only, in min.

- Cc1ccsc1-c1cccnc1: 32

State recorded half-life at 40 μM for all listed compounds.
1. NCc1ccc(-c2cccnc2)o1
2. CNCc1ccc(-c2cccnc2)s1

Response:
[37, 96]

Query: Tell me the measured half-life at 40 μM of CNCc1ccc(-c2cccnc2)o1 , please.
Response: 66
